Listing of recorded inhibition at 20 µg/mL by entry.
Test system: fat cells
Assay: Decomposition by adrenalin of the fat in the fat cells
Assay type: cell-based, male wister rats
Conditions: Rattus norvegicus, 2 h; adrenalin 1 μg/ml + saponin 20 μg/ml; 37° C., two hours; read-out: Rate of inhibition
Procedure: A small section was prepared from 4 g of the fat tissue, and placed in 10 ml. of Krebs-Ringer bicarbonate buffer containing 0.4 g of albumin, 10 mg of collagenase and 5 mg of glucose, and having a pH value of 7.4. […] Added into the fat cell were 10 ml. of the aforesaid buffer (pH 7.4), and the solution was carefully stirred to wash the fat cell, followed by centrifugal separation at 300 rpm for 30 seconds. […]

| SMILES STRUCTURE | inhibition at 20 µg/mL |
| --- | --- |
| CC(C)=CCC[C@](C)(O[C@@H]1O[C@H](CO[C@@H]2OC[C@@H](O)[C@H](O)[C@H]2O)[C@@H](O)[C@H](O)[C@H]1O)[C@H]1CC[C@]2(C)[C@@H]1[C@H](O)C[C@@H]1[C@@]3(C)CC[C@H](O[C@@H]4O[C@H](CO)[C@@H](O)[C@H](O)[C@H]4O)C(C)(C)[C@@H]3CC[C@]12C | 10% |

// field: inhibition at 20 µg/mL; key: `CC(C)=CCC[C@](C)(O[C@@H]1O[C@H](CO[C@@H]2O[C@@H](C)[C@H](O)[C@@H](O)[C@H]2O)[C@@H](O)[C@H](O)[C@H]1O)[C@H]1CC[C@]2(C)[C@@H]1[C@H](O)C[C@@H]1[C@@]3(C)CC[C@H](O[C@@H]4O[C@H](CO)[C@@H](O)[C@H](O)[C@H]4O[C@@H]4OC[C@@H](O)[C@H](O)[C@H]4O)C(C)(C)[C@@H]3CC[C@]12C` ; value = 1%

// field: inhibition at 20 µg/mL; key: `CC(C)=CCC[C@](C)(O[C@@H]1O[C@H](CO[C@@H]2O[C@@H](C)[C@H](O)[C@@H](O)[C@H]2O)[C@@H](O)[C@H](O)[C@H]1O)[C@H]1CC[C@]2(C)[C@@H]1[C@H](O)C[C@@H]1[C@@]3(C)CC[C@H](O[C@@H]4O[C@H](CO[C@@H]5O[C@@H](C)[C@H](O)[C@@H](O)[C@H]5O)[C@@H](O)[C@H](O)[C@H]4O)C(C)(C)[C@@H]3CC[C@]12C` ; value = 2%

// field: inhibition at 20 µg/mL; key: `CC(C)=CCC[C@](C)(O[C@@H]1O[C@H](CO[C@@H]2O[C@H](CO)[C@@H](O)[C@H](O)[C@H]2O)[C@@H](O)[C@H](O)[C@H]1O)[C@H]1CC[C@]2(C)[C@@H]1[C@H](O)C[C@@H]1[C@@]3(C)CC[C@H](O[C@@H]4O[C@H](CO[C@@H]5O[C@@H](C)[C@H](O)[C@@H](O)[C@H]5O)[C@@H](O)[C@H](O)[C@H]4O)C(C)(C)[C@@H]3CC[C@]12C` ; value = 8%

// field: inhibition at 20 µg/mL; key: `CC(C)=CCC[C@](C)(O[C@@H]1O[C@H](CO)[C@@H](O)[C@H](O)[C@H]1O)[C@H]1CC[C@]2(C)[C@@H]1[C@H](O)C[C@@H]1[C@@]3(C)CC[C@H](O[C@@H]4O[C@H](CO[C@@H]5O[C@@H](C)[C@H](O)[C@@H](O)[C@H]5O)[C@@H](O)[C@H](O)[C@H]4O)C(C)(C)[C@@H]3CC[C@]12C` ; value = 2%

// field: inhibition at 20 µg/mL; key: `CC(C)=CCC[C@](C)(O[C@@H]1O[C@H](CO[C@@H]2OC[C@@H](O)[C@H](O)[C@H]2O)[C@@H](O)[C@H](O)[C@H]1O)[C@H]1CC[C@]2(C)[C@@H]1[C@H](O)C[C@@H]1[C@@]3(C)CC[C@H](O)C(C)(C)[C@@H]3CC[C@]12C` ; value = 4%
